- assayComment: photoluminescence quantum yield (fraction); solvent given as SMILES
- protocolConditions: in CCO

molSmiles: Ic1ccc(-c2c3ccc(=[N+]4CCCCC4)cc-3oc3cc(N4CCCCC4)ccc23)cc1
photoluminescence quantum yield: 0.28
//
molSmiles: CCOC(=O)c1ccccc1-c1c2ccc(=O)cc-2oc2cc(OC(=O)[C@H](CO[Si](C)(C)C(C)(C)C)NC(=O)OC(C)(C)C)ccc12
photoluminescence quantum yield: 0.048
//
molSmiles: Cc1ccc(-c2ccc(/C=C/c3cccn3C)cn2)nc1
photoluminescence quantum yield: 0.2
//
molSmiles: CCN(CC)c1ccc2c(-c3ccccc3C(=O)[O-])c3ccc(=[N+](CC)CC)cc-3oc2c1
photoluminescence quantum yield: 0.66
//
molSmiles: CN(C)c1ccc(/C=C/C=C/c2nc3ccccc3s2)cc1
photoluminescence quantum yield: 0.0045
//
molSmiles: CN(C)c1ccc2c(-c3cc(C(=O)[O-])ccc3C(=O)[O-])c3ccc(=[N+](C)C)cc-3oc2c1
photoluminescence quantum yield: 0.59
//
molSmiles: CC(=O)c1c2c(cc3c(N(C)C)cccc13)CCC2
photoluminescence quantum yield: 0.01
//
molSmiles: CCN(CC)c1ccc2c(-c3ccc(S(=O)(=O)[O-])cc3S(=O)(=O)[O-])c3ccc(=[N+](CC)CC)cc-3oc2c1
photoluminescence quantum yield: 0.68
//
molSmiles: O=C1/C(=C/C=C/c2cc3c4c(c2)CCCN4CCC3)CC/C1=C\C=C\c1cc2c3c(c1)CCCN3CCC2
photoluminescence quantum yield: 0.026

====

- assayComment: photoluminescence quantum yield (fraction); solvent given as SMILES
- protocolConditions: in CCO
# photoluminescence quantum yield binned as lower range (below 0.1), middle range (0.1 to below 0.3), upper range (0.3 or more)

molSmiles: COCCOCCOCCOCCOc1ccc(OCCOCCOCCOCCOC)c(C=O)c1
classification: middle range
//
molSmiles: CCC1=C(C)C2=Cc3cc(I)cn3[B-](F)(F)[N+]2=C1C
classification: lower range
//
molSmiles: Cc1nn(-c2ccccc2)c(C2=NN(c3ccc(Br)cc3)[C@@H](c3ccccc3)[C@@H]2c2ccccc2)c1C#N
classification: upper range
//
molSmiles: Cc1cccc2nc3c(=O)[nH]c(=O)[nH]c3nc12
classification: lower range
//
molSmiles: CC(C)[Si]1(C(C)C)c2cc(N(C)C)ccc2-c2ccc(C(F)(F)F)cc21
classification: middle range
//
molSmiles: c1csc(-c2cnc(-c3cccs3)c3nonc23)c1
classification: middle range
//
molSmiles: CCC1(CC)c2cc(N(C)C)ccc2-c2ccc(C(F)(F)F)cc21
classification: upper range
//
molSmiles: O=C(Cc1ccccc1)OCc1ccc2c3cccc4cccc(c5cccc1c52)c43
classification: upper range
//
molSmiles: COc1ccc(-c2cc3c4c(c2)CCc2cc(-c5ccc(OC)cc5)cc(c2-4)CC3)cc1
classification: upper range
//
molSmiles: COCCOCCOc1cc(C=O)c(OCCOCCOC)cc1C=O
classification: middle range
//
molSmiles: CC1(C)C(/C=C/C2=C(Cl)C(=C/C=C3/N(Cc4ccccc4)c4ccccc4C3(C)C)/CCC2)=[N+](Cc2ccccc2)c2ccccc21
classification: middle range
//
molSmiles: N#Cc1cnc(-c2c3ccccc3c(-c3ccccc3)c3ccccc23)nc1
classification: lower range
//
molSmiles: Nc1cccc2c1-c1ccccc1C2=O
classification: lower range

====

- assayComment: photoluminescence quantum yield (fraction); solvent given as SMILES
- protocolConditions: in CS(C)=O

molSmiles: CN1/C(=C/C=C(/C=C/C2=[N+](C)c3ccccc3C2(C)C)c2ccc(C(F)(F)F)cc2)C(C)(C)c2ccccc21
photoluminescence quantum yield: 0.23
--
molSmiles: COc1ccc(-c2nc(-c3ccccc3O)c(-c3ccccc3O)n2-c2ccc(C)cc2)cc1
photoluminescence quantum yield: 0.01
--
molSmiles: CCN1C(=CC=Cc2n(CC)c3cc(Cl)c(Cl)cc3[n+]2CC)N(CC)c2cc(Cl)c(Cl)cc21
photoluminescence quantum yield: 0.055
--
molSmiles: COc1ccc(C2=[N+]3C(=Nc4c(C)cc(-c5ccc(OC)cc5)n4[B-]3(F)F)C(C)=C2)cc1
photoluminescence quantum yield: 0.44
